- TARGET ENTITY: T1, MIK2 (MALE DISCOVERER 1-INTERACTING RECEPTOR-LIKE KINASE 2) ectodomain, wild type (Arabidopsis thaliana, UniProt Q8VZG8 44-709)
- T1 chain: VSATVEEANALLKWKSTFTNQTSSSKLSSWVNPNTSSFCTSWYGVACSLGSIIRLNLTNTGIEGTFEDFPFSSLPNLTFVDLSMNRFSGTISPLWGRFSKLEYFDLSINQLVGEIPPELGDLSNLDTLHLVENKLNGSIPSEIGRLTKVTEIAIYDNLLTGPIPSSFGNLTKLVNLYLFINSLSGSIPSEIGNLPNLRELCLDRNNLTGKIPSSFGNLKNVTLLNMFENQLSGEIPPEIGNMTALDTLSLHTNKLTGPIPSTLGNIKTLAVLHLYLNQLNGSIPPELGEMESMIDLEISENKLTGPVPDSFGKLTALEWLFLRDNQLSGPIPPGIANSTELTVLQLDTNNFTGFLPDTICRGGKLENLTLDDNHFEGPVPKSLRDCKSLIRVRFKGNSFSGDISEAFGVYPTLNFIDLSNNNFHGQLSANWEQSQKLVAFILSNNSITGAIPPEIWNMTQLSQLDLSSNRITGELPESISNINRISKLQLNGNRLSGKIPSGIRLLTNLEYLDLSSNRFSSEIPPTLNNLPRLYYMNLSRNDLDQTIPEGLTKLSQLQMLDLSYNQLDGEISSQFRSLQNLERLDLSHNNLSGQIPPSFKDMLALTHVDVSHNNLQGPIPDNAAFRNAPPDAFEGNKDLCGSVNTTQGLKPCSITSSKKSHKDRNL
- EXPERIMENT: ITC
READOUT: pKd
Units for pKd: none; it is -log10 of a concentration expressed in mol/L.

Prompt line: Give a short answer stating reported pKd for PVRSSQSSQAGGR [SCOOP12 (SERINE RICH ENDOGENOUS PEPTIDE 12), synthetic peptide] .
Response line: 5.67

Every entry's value here was drawn from paper PMC11331138.
